- System: VDR:RXRa (NR concentration 270 nM, RXRa partner concentration 90 nM)
- EXPERIMENT: PBM binding z-score (relative to random genomic background probes); higher = stronger binding; sequences stand for … in GC…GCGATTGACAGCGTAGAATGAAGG
MEASUREMENT_TYPE: PBM binding z-score
I only need the number, thanks.

Answered cases to consult:
CGAAGTAGGTCAGAACAGGACAGTGAAGGATGAT = 0.559
CCTATTAGTTGACCAGAAGGGCAACCGAAGCTCG = 0.596
TCTATCAGTTGAAGGGCAACCGACGAGTCCGTTT = 1.07
TCTAGCACGCCAGAGGGTCACTCAAGAGGTACGG = 1.37

Note: attention shifts to another entry.
Annotate the sequence ACTATCAGTTGAGACGAGGGCAACCGATAGGTTG with its measured PBM binding z-score.
0.625

* * *

- Tested on: VDR homodimer (NR concentration 270 nM)
- EXPERIMENT: PBM binding z-score (relative to random genomic background probes); higher = stronger binding; sequences stand for … in GC…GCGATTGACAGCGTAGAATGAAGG
I would appreciate it if you labelled entries TRUE when PBM binding z-score is 1 or higher, otherwise FALSE.

CCAGACAGGTGAAAGGTAACTGAGTCTGGTACGC = FALSE

Now, please, on to the next sequence.
Is PBM binding z-score for ATACCAAGGTGATCATGAGGTCGTTGATACTAAC at or above 1?
TRUE

* * *

Measured PBM binding z-score of individual entries
- System: RXRa DBDmut IVT, anti-RXR (DBD mutation: RXRa K156A/R161A, NR concentration 90 nM)
- EXPERIMENT: PBM binding z-score (relative to random genomic background probes); higher = stronger binding; sequences stand for … in GC…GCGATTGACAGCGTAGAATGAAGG
Response field accepts a number only; no unit should be typed.

Some sequences with recorded PBM binding z-score:
CCGACTGTGGCAAGGTTACCATAACGCACAGCCA = 0.0244
ATCTCTAGGTAAGACTCAGTCCAGTGAAGAACGC = 0.459
TCTAGTTTGTCACGGAGGTCACACACGACGGGTA = 1.65

Return PBM binding z-score (reported value) for this sequence: TCGAGTAGGTTACCAATGGGGCATTGAGCTTTCT
0.408

Given CCTCGGAGGACAACAGGAGGTCAGAGTTGCCAGA , respond with its PBM binding z-score.
0.349

Give PBM binding z-score for the following sequence: CCTACTGGGCCATTCAGAGGTCATTCATCATATG
0.971

Entry TCTAGTTGGTCACGGAGGTCACACAGGACGGGTA needs its PBM binding z-score filled in; supply it.
0.898

State its PBM binding z-score: CGTCCAAGGTCAGAGAGGGCAGTGAATGCCGAGT
3.24

* * *

Reported PBM binding z-score values for a set of sequences
- System: RARa homodimer (NR concentration 270 nM)
- EXPERIMENT: PBM binding z-score (relative to random genomic background probes); higher = stronger binding; sequences stand for … in GC…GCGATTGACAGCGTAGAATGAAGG
Answer as a number with no unit attached.

Worked cases, answers included:
CCTCGGAGGCCAACAGGAGGTCAGAGCTGCCAGA = 0.23
TCTATTAGTTGAAGGACAACCGACGAGTCCGTTT = 1.51
CCGACTGGGGCAAGGTTAGCATAACGCACAGCCA = -0.606
CAAACTAGGTCACGGGAAGGTCAAAGTCCGCATG = 1.78
TCTGGTAGATCAGCAGGTTAAGAAAGCTGGCCAA = -0.495
TCTGCTAGGTCAACGATGGTTAGCTAATCTGCTA = -0.888
ATCGAGAGGTCGAAGGTGAGTATACCCACCCGAA = -0.646
ATATGTAGGGTACATCCGGGTCATTCAGGCTATG = 0.779
CCTTACGGGTCACTGACAGGTTGTAGCATTTGGA = 0.949
CGACCTAGGTCAAGGACAGTGAATCTCCGCACGC = 0.805

Input GATACAGTGTCAGCTAGAGGCCAGAGTATGGAAA , output reported PBM binding z-score.
-0.579

Give the reported PBM binding z-score for this sequence. ATCGAAAGGTCGAGGTGAGTGTAGAGAAAGGGAA
1.1

State, in one line, measured PBM binding z-score of TCATATAGGTAAATGCAAGGTGAAAGTCCGATCT
0.975

In one line, give reported PBM binding z-score of the entry TTACCAAGGTGAAGGTCGCTGATCCCTCTGTAGA .
-0.643

* * *

- Test system: VDR homodimer (NR concentration 270 nM)
- EXPERIMENT: PBM binding z-score (relative to random genomic background probes); higher = stronger binding; sequences stand for … in GC…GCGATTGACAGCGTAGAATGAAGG
MEASUREMENT_TYPE: PBM binding z-score
Could you keep your reply to the number by itself?

CGTCAAAGTTCAACTAAGGTAACGGAAAGCACGC = 3.47
TAGCCTAGGTCATTCACGGGCCAGTATAGAAAGC = 1.43

Shift focus to the following entry.
Provide one value: measured PBM binding z-score of GCTCGGAGGACAAGTTCAGAGCTTTGTCCGTAGA
1.89

* * *

- Test system: THRa:RXRa (NR concentration 90 nM, RXRa partner concentration 90 nM)
- EXPERIMENT: PBM binding z-score (relative to random genomic background probes); higher = stronger binding; sequences stand for … in GC…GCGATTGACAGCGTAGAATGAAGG
# if value of PBM binding z-score reaches 3, tag True; if it stays below, tag False

ACTAGCAGGCCAAGTTTGGGTCCCTCAAACAAAG = False
CAAACTAGGTCCCAGAGGTCAAAGTCCGTGCGTA = True
CAAACTGGGTCACGAAAGGTCAAAGTCGAATGAC = True
TAGGCTAGGTCATTGGGCCAGTATAGTACGCATC = False

Item TCTGCTAGGTCAACGATGGTCAGCTAATCTGCTA with PBM binding z-score of 3 or above?
True

Confirm if PBM binding z-score reported for the sequence AGTATTAGTTGAGACGAGGGCAACCGATAGGTTG is 3 or above.
False

* * *

sequences and their reported PBM binding z-score
- Tested on: PPARg:RXRa 270nM:90nM, anti-RXR (NR concentration 270 nM, RXRa partner concentration 90 nM)
- EXPERIMENT: PBM binding z-score (relative to random genomic background probes); higher = stronger binding; sequences stand for … in GC…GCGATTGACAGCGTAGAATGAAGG
Please state the value as a number alone, without comment.

Check out these entries, answers already filled in.
CAGCCTAGGTCAGGGCCAGTACAGGAGGAACGTT = 0.908
TAGCCTAAGTCATTCAGGGGCCAGTATAGAAAGC = 0.16
CGTCCAAGGTCATCGGAGGTCAGTGAAGACAGAT = 5.91
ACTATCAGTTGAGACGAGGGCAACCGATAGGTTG = 0.00158
GATACAGGGTCAGCTAGAGCCCAGAGTATGGAAA = 3.29

Look up and state reported PBM binding z-score for GCTTGTTGATCAAGGTTAAGAAAGACTAAGCTAA
0.401

Determine its reported PBM binding z-score: TCTCGGAGGACACGAAGGTCTGAGCTTTCCAGAG
0.641

* * *

- System: PPARg:RXRa DBDmut IVT, anti-RXR (DBD mutation: RXRa K156A/R161A, NR concentration 270 nM, RXRa partner concentration 90 nM)
- EXPERIMENT: PBM binding z-score (relative to random genomic background probes); higher = stronger binding; sequences stand for … in GC…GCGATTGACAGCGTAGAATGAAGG
Tick satisfied if PBM binding z-score is 2 or greater. Tick not satisfied if PBM binding z-score is less than 2.

TCTAGCAGGCCAGAAGGTCACTCAAGAGGTACGG = not satisfied
AGTTAAAGTTCATCTAGGTAACGTAAGATATGCT = not satisfied
GATACACGGTCAGCTAGAGGCCAGAGTATGGAAA = not satisfied
TCTTCTAGGTCAACGATGGTCAGCTAATCTGCTA = satisfied
CCTACTGGGCCAATGGTCATTGATTCCAATGCTC = satisfied

# check: PBM binding z-score of CCTATTAGTTGACCATAAGGGCAGCCGAAGCTCG is greater than or equal to 2
not satisfied

# bool: PBM binding z-score of AGTCAAAGTTCATCTAGGTAACGTACGATATGCT >= 2
not satisfied

Given the entry CAAACTAGGTCATGAAAGGTCAAAGTCGAATGAC , answer whether its PBM binding z-score meets or surpasses 2.
satisfied

* * *

Form field: PBM binding z-score (one value per entry).
- Tested on: LXRa homodimer (NR concentration 270 nM)
- EXPERIMENT: PBM binding z-score (relative to random genomic background probes); higher = stronger binding; sequences stand for … in GC…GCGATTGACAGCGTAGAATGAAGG
Output: the number by itself.

TAGCCTCGGTCATGGGCCAGTATACCACGCGAAC = 0.0533
CGAACTAGGTCGTTGACAGGACAGTGAATAGTAA = -0.251
CCGAGTTGGTTATGGGGCATTCAGGCAACGGTGA = -0.147
CAAACTAGGTCGCAGAGGTCAAAGTCCGTGCGTA = 5.84

Please report the measured PBM binding z-score for TCGAGTAGGTTAGGGGCATTGAGAATGGCGTCGA tested on LXRa homodimer (NR concentration 270 nM).
-0.182

Provide LXRa homodimer (NR concentration 270 nM) PBM binding z-score reading for CCGACTGGGGCAAAGGTTACCATACTCAGTACGA .
0.0551

Quote PBM binding z-score with test system LXRa homodimer (NR concentration 270 nM) for ACTTACGGGTCAACGAGGTTGTAGCACGCGTATA
0.172

Give PBM binding z-score for this entry on LXRa homodimer (NR concentration 270 nM): CCAGACAGGGGAAAGGTAACTCAGTCTGGTACGC
-0.21

Name the value of PBM binding z-score reported for CCTTACGGGTCACTGACAGGTTATCGCATTTGGA when tested on LXRa homodimer (NR concentration 270 nM).
0.422

Find PBM binding z-score for ATATGTACGTTAGCTGGGGTCATTCAGACTAGGC on LXRa homodimer (NR concentration 270 nM) and write it down.
2.29

System LXRa homodimer (NR concentration 270 nM). Read-out PBM binding z-score. Item ATTGAAAGGTCGAGGTGAGTATAGAGAAAGGGAA . Report value.
0.427

Output reported PBM binding z-score of the sequence TCGGGTAGGTTAGTCGGGGCATTCAGCCAACATA on LXRa homodimer (NR concentration 270 nM).
0.422

Report the value of PBM binding z-score obtained on LXRa homodimer (NR concentration 270 nM) for CCTTACGGGTCACTCCAGGTTATAGAATCGGAGT .
1.89

Print LXRa homodimer (NR concentration 270 nM) PBM binding z-score for ATCTATAGGTAAAGATAGTTCAGTGAATGCAAAT .
0.591

With LXRa homodimer (NR concentration 270 nM) as the test system, provide measured PBM binding z-score for this sequence: TCTCGGAGGACACGAAGGCCAGAGCTTTCCAGAG
-0.863

Send back LXRa homodimer (NR concentration 270 nM) PBM binding z-score of TGGATGAGGTTATAAGATCAGGGAACGTTGCAAA only.
0.181

// fetch PBM binding z-score; item: CCTTACGGCTCAAGGTTATAGCACGGGTGGTACG ; system: LXRa homodimer (NR concentration 270 nM)
0.117

Write down the reported PBM binding z-score (system: LXRa homodimer (NR concentration 270 nM)) of CCTACTGGGCCATCTGGTCATTGATATCAACGTT
-0.126

# return PBM binding z-score for CGTCCAAGTTCATAGGAGGTCAGTGAAGACAGAT , test system: LXRa homodimer (NR concentration 270 nM)
3.8

Enter recorded PBM binding z-score with LXRa homodimer (NR concentration 270 nM) for AATACAGGGTCACTAGGCCAGACTAGGTACGAAT here.
0.88
